Property: inhibition at 10 µM; scope: individual compounds
# measured_target: BRD4 bromodomain domain I [BRD4(1)] (Homo sapiens)
# Construct: BRD4 bromodomain domain I [BRD4(1)]; purchased Cayman Chemicals
# experiment_summary: BRD4 bromodomain domain 1 inhibition assay (TR-FRET)
# Assay type: binding
# condition_label: screening concentration 10 μM

CC(C)Oc1cc(C(=O)N2CCN(C3CCN(C)CC3)CC2)ccc1Nc1cc2c(cn1)N(C)C(=O)c1ccccc1N2C	> 85%
CCOc1cc(C(=O)N2CCNC[C@@H]2C)ccc1Nc1cc2c(cn1)N(C)C(=O)c1ccccc1N2C	> 85%
CCOc1cc(C(=O)NCCc2ccncc2)ccc1Nc1cc2c(cn1)N(C)C(=O)c1ccccc1N2C	< 70%

Identify the reported inhibition at 10 µM for the following entry. CCOc1cc(C(=O)N2CCCNCC2)ccc1Nc1cc2c(cn1)N(C)C(=O)c1ccccc1N2C
> 85%

----------
# Test system: human Th17 cells
# experiment_summary: Cytokine response by in vitro-polarized human Th17 cells stimulated with PMA/ionomycin
# Assay type: cell-based
# condition_label: 10 μM compound, PMA/ionomycin 20 h, read-out: Percent inhibition of IL-21 (relative to DMSO control)
property_measured: inhibition at 10 µM (%)
Give your result in % as a bare value.

// solved cases for inhibition at 10 µM follow
CCOc1cc(C(=O)N2CC[C@@H](N(C)C)C2)ccc1Nc1cc2c(cn1)N(C)C(=O)c1ccccc1N2C	-86.1
CCOc1cc(C(=O)N2CCC(N3CCCC3)CC2)ccc1Nc1cc2c(cn1)N(C)C(=O)c1ccccc1N2C	-6.1
CCOc1cc(C(=O)N2CCC(N3CCN(C)CC3)CC2)ccc1Nc1cc2c(cn1)N(C)C(=O)c1occc1N2C	0.8

Identify the reported inhibition at 10 µM for the following entry. CCOc1cc(C(=O)N2CCNCC2)ccc1Nc1cc2c(cn1)N(C)C(=O)c1ccccc1N2C
2.5

Identify the reported inhibition at 10 µM for the following entry. CCOc1cc(C(=O)NCC2CC2)ccc1Nc1cc2c(cn1)N(C)C(=O)c1ccccc1N2C
28.6

Identify the reported inhibition at 10 µM for the following entry. CCOc1cc(C(=O)N2CCC(N3CCN(C)CC3)CC2)ccc1Nc1cc2c(cn1)N(C)C(=O)c1ccccc1N2C
22.4

----------
Property: EC50; scope: individual compounds
# System: human PBMCs
# experiment_summary: Cytokine response by primary human PBMCs stimulated with PMA/ionomycin or LPS
# Type: cell-based
# condition_label: PBMC, 100 ng/ml LPS 20 h, read-out: EC50 (μM) under LPS stimulation, IL-17A

CCOc1cc(C(=O)N2CCC(N3CCCC3)CC2)ccc1Nc1cc2c(cn1)N(C)C(=O)c1ccccc1N2C [Compound 46]	> 10 µM

# return EC50 for CCOc1cc(C(=O)N2CCCN(C)CC2)ccc1Nc1cc2c(cn1)N(C)C(=O)c1ccccc1N2C [Compound 8] , test system: human PBMCs
> 10 µM

----------
# measured_target: AurA (Homo sapiens, UniProt O14965)
# Construct: screened for activity against several kinases in Jurkat cells; endogenous in cells; host or cells: Jurkat cell lysate
# Sequence (O14965 whole entry): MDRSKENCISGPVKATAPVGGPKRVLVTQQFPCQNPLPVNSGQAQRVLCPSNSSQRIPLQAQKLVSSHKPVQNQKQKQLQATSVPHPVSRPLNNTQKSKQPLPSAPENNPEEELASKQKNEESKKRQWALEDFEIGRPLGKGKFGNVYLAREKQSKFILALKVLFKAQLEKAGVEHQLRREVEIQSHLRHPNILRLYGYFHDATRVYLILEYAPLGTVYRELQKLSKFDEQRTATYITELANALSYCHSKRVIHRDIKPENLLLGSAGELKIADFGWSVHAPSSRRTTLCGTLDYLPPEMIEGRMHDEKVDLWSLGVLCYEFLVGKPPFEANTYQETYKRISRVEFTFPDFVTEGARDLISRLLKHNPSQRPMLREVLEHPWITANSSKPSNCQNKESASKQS
# experiment_summary: Probe-based (AX9989) kinase profiling in Jurkat lysate: AurA
# Assay type: binding
# condition_label: screening concentration 0.1 μM; read-out: Kinase inhibition % at indicated screening concentration: AurA
property_measured: inhibition at 0.1 µM

// solved cases for inhibition at 0.1 µM follow
Cc1cc(CN2CC[C@@H](N3CCCC3)C2)ccc1Nc1cc2c(cn1)N(C)C(=O)c1ccccc1N2C	≤ 35%
C=CCN1CCN(C(=O)c2ccc(Nc3cc4c(cn3)N(C)C(=O)c3ccccc3N4C)c(OCC)c2)CC1	≤ 35%
CCOc1cc(C(=O)N2CC[C@@H](N(CC)CC)C2)ccc1Nc1cc2c(cn1)N(C)C(=O)c1occc1N2C	≤ 35%

Identify the reported inhibition at 0.1 µM for the following entry. CCOc1cc(C(=O)N2CCNC[C@@H]2C)ccc1Nc1cc2c(cn1)N(C)C(=O)c1ccccc1N2C
≤ 35%

----------
# measured_target: ERK5 (Homo sapiens)
# Construct: screened for activity against several kinases in Jurkat cells; endogenous in cells; host or cells: Jurkat cell lysate
# experiment_summary: Probe-based (AX9989 acyl phosphate ATP probe) kinase profiling in Jurkat lysate: ERK5
# Assay type: binding
# condition_label: calculated from percent inhibition of AX9989 labeling and the screening concentration; Jurkat lysate
pIC50: −log10 of the molar value.
property_measured: pIC50

// solved cases for pIC50 follow
CCOc1cc(C(=O)N2CCN(C(C)(C)C)CC2)ccc1Nc1cc2c(cn1)N(C)C(=O)c1ccccc1N2C [Compound 94]	≥ 7.30
COc1c(Nc2cc3c(cn2)N(C)C(=O)c2ccccc2N3C)cccc1C(=O)N1CCNCC1 [Compound 78]	< 6.30
CCOc1cc(C(=O)N2CCC(N3CCCC3)CC2)ccc1Nc1cc2c(cn1)N(C)C(=O)c1ccccc1N2C [Compound 46]	≥ 7.30

Identify the reported pIC50 for the following entry. COc1ccc(C(=O)O)cc1Nc1cc2c(cn1)N(C)C(=O)c1ccccc1N2C [Compound 36]
< 6.30

Identify the reported pIC50 for the following entry. CN1C(=O)c2ccccc2N(C)c2cc(N[C@H]3CC[C@H](NC4=NCCO4)CC3)ncc21 [Compound 45]
6.30 to 7.00

Identify the reported pIC50 for the following entry. CN1CCC(c2ccc(Nc3cc4c(cn3)N(C)C(=O)c3ccccc3N4C)cc2)CC1 [Compound 92]
≥ 7.30

Identify the reported pIC50 for the following entry. CCOc1cc(C(=O)NCCN2CCN(C)CC2)ccc1Nc1cc2c(cn1)N(C)C(=O)c1ccccc1N2C [Compound 44]
6.30 to 7.00

Identify the reported pIC50 for the following entry. CCOc1cc(C(=O)N2CC[C@@H](N(CC)CC)C2)ccc1Nc1cc2c(cn1)N(C)C(=O)c1occc1N2C [Compound 67]
≥ 7.30

----------
# measured_target: BRD4 bromodomain domain I [BRD4(1)] (Homo sapiens, UniProt O60885)
# Construct: BRD4 bromodomain domain I [BRD4(1)]; purchased Cayman Chemicals
# experiment_summary: BRD4 bromodomain domain 1 inhibition assay (TR-FRET)
# Assay type: binding
# condition_label: screening concentration 10 μM
property_measured: inhibition at 10 µM

CCOc1cc(C(=O)N(C)CCN(C)C)ccc1Nc1cc2c(cn1)N(C)C(=O)c1ccccc1N2C [Compound 88]	> 85%
CN1C(=O)c2ccccc2N(C)c2cc(NC3CCC(C(=O)NC4CCOCC4)CC3)ncc21 (stereo not drawn) [Compound 64]	< 70%
CN1C(=O)c2ccccc2N(C)c2cc(NC3CCC(C(=O)O)CC3)ncc21 (stereo not drawn) [Compound 23]	< 70%

Identify the reported inhibition at 10 µM for the following entry. CCOc1cc(C(=O)N2CCC(NC(C)C)C2)ccc1Nc1cc2c(cn1)N(C)C(=O)c1ccccc1N2C (stereo not drawn) [Compound T4]
> 85%

Identify the reported inhibition at 10 µM for the following entry. CCOc1cc(C(=O)Nc2ccncc2)ccc1Nc1cc2c(cn1)N(C)C(=O)c1ccccc1N2C [Compound 7]
< 70%

----------
Property: inhibition at 0.1 µM; scope: individual compounds
# measured_target: ERK5 (Homo sapiens)
# Construct: screened for activity against several kinases in Jurkat cells; endogenous in cells; host or cells: Jurkat cell lysate
# experiment_summary: Probe-based (AX9989 acyl phosphate ATP probe) kinase profiling in Jurkat lysate: ERK5
# Format: binding
# condition_label: screening concentration 0.1 μM; read-out: Kinase inhibition % at indicated screening concentration: ERK5

// solved cases for inhibition at 0.1 µM follow
CCOc1cc(C(=O)N2CC[C@@H](N3CCCCC3)C2)ccc1Nc1cc2c(cn1)N(C)C(=O)c1occc1N2C [Compound 56]	> 90%
CCOc1cc(C(=O)N(C)CCn2ccnc2)ccc1Nc1cc2c(cn1)N(C)C(=O)c1ccccc1N2C [Compound 30]	75 to 90%
CCOc1cc(C(=O)N2CCNC[C@@H]2C)ccc1Nc1cc2c(cn1)N(C)C(=O)c1ccccc1N2C [Compound 31]	75 to 90%
CCOc1cc(C(=O)N2CCN(C(=O)OC(C)(C)C)C[C@@H]2C)ccc1Nc1cc2c(cn1)N(C)C(=O)c1ccccc1N2C [Compound 50]	35 to 50%
Cc1cc(C(=O)N2CC[C@@H](N(C)C)C2)ccc1Nc1cc2c(cn1)N(C)C(=O)c1ccccc1N2C [Compound 32]	75 to 90%

# return inhibition at 0.1 µM for CCOc1cc(C(=O)N2CC(N3CCCCC3)C2)ccc1Nc1cc2c(cn1)N(C)C(=O)c1ccccc1N2C [Compound 114] , test system: ERK5 (Homo sapiens)
> 90%

# return inhibition at 0.1 µM for CCOc1cc(C(=O)NCCN(C(C)C)C(C)C)ccc1Nc1cc2c(cn1)N(C)C(=O)c1ccccc1N2C [Compound 55] , test system: ERK5 (Homo sapiens)
50 to 75%

----------
# measured_target: ERK5 (Homo sapiens, UniProt Q13164)
# Construct: screened for activity against several kinases in Jurkat cells; endogenous in cells; host or cells: Jurkat cell lysate
# Sequence (Q13164 whole entry): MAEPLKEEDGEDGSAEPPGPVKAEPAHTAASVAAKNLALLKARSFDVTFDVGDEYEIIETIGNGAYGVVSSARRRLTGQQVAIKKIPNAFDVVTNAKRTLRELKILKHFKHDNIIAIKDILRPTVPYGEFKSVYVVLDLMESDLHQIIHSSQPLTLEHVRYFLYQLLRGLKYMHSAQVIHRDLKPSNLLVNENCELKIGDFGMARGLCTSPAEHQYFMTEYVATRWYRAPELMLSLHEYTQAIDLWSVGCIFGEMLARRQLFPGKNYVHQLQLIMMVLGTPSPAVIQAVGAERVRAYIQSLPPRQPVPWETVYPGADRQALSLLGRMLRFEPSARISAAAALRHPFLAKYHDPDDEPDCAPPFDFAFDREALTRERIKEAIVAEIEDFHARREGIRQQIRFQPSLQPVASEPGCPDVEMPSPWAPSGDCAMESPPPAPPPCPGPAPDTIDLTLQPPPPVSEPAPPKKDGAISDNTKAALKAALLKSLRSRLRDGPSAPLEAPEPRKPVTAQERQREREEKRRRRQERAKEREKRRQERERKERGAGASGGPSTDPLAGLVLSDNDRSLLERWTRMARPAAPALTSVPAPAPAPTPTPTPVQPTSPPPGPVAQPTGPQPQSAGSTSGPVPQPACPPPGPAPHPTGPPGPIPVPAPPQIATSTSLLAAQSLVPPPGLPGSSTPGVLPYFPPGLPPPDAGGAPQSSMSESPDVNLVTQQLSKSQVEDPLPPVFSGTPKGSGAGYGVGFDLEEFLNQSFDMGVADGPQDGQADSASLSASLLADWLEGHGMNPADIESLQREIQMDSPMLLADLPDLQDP
# experiment_summary: Probe-based (AX9989 acyl phosphate ATP probe) kinase profiling in Jurkat lysate: ERK5
# Format: binding
# condition_label: calculated from percent inhibition and screening concentration; Jurkat lysate, AX9989 probe
Property: IC50; scope: individual compounds

CCOc1cc(C(=O)N(C)[C@H]2CC[C@H](O)CC2)ccc1Nc1cc2c(cn1)N(C)C(=O)c1ccccc1N2C	50 to 100 nM
CCOc1cc(C(=O)N2CCN(C(C)=O)CC2)ccc1Nc1cc2c(cn1)N(C)C(=O)c1scnc1N2C	> 500 nM
CCOc1cc(C(=O)N2CCN(CCN(C)C)CC2)ccc1Nc1cc2c(cn1)N(C)C(=O)c1ccccc1N2C	≤ 50 nM
CCOc1cc(C(=O)N2CCC(N3CCCC3)CC2)ccc1Nc1cc2c(cn1)N(C)C(=O)c1scnc1N2C	≤ 50 nM
CCOc1cc(C(=O)N2CCC(NC3CCN(C)CC3)C2)ccc1Nc1cc2c(cn1)N(C)C(=O)c1ccccc1N2C (stereo not drawn)	50 to 100 nM
CCOc1cc(C(=O)N2CC[C@H](C#N)C2)ccc1Nc1cc2c(cn1)N(C)C(=O)c1ccccc1N2C	≤ 50 nM

# return IC50 for CCOc1cc(C(=O)N2CCOCC2)ccc1Nc1cc2c(cn1)N(C)C(=O)c1ccccc1O2 , test system: ERK5 (Homo sapiens, UniProt Q13164)
101 to 500 nM

# return IC50 for COc1cccc2c1Oc1cc(N[C@H]3CC[C@H](O)CC3)ncc1N(C)C2=O , test system: ERK5 (Homo sapiens, UniProt Q13164)
> 500 nM

# return IC50 for CN1C(=O)c2ccccc2N(S(C)(=O)=O)c2cc(N[C@H]3CC[C@H](O)CC3)ncc21 , test system: ERK5 (Homo sapiens, UniProt Q13164)
> 500 nM
